Biological target: feline FcRn complex (FcRn-α subunit and β-microglobulin), biotin labeled (feline)
Assay: SPR, pH 7.4

binder: feline IgG1a Y404Q (antibody, part only; not given: Variable domains, not shown: another chain or arm of the molecule) constant: ASTTAPSVFPLAPSCGTTSGATVALACLVLGYFPEPVTVSWNSGALTSGVHTFPAVLQASGLYSLSSMVTVPSSRWLSDTFTCNVAHPPSNTKVDKTVRKTDHPPGPKPCDCPKCPPPEMLGGPSIFIFPPKPKDTLSISRTPEVTCLVVDLGPDDSDVQITWFVDNTQVYTAKTSPREEQFNSTYRVVSVLPILHQDWLKGKEFKCKVNSKSLPSPIERTISKAKGQPHEPQVYVLPPAQEELSRNKVSVTCLIKSFHPPDIAVEWEITGQPEPENNYRTTPPQLDSDGTQFVYSKLSVDRSHWQRGNTYTCSVSHEALHSHHTQKSLTQSPGK
Kd / µM: 9.94
